melting point values by entry

[
  {
    "Compound structure string": "Nc1cncnc1-c1ccccc1",
    "melting point": "115 to 117 °C"
  },
  {
    "Compound structure string": "O=C(O)c1ccc(I)c(Br)c1",
    "melting point": "243 to 245 °C"
  },
  {
    "Compound structure string": "O=C(CSc1ccccc1C(=O)O)NCC1CCCCC1",
    "melting point": "118 to 120 °C"
  },
  {
    "Compound structure string": "C=CC(=O)NC(=O)Nc1ccccc1",
    "melting point": "149 to 151 °C"
  },
  {
    "Compound structure string": "O=C(O)CCc1ccoc1",
    "melting point": "63 to 65 °C"
  }
]

Prompt line: Can you share its melting point? I mean this compound: CC(=O)CC(=O)c1cnn(C)c1
Response line: 88 to 90 °C

Prompt line: Can you share its melting point? I mean this compound: Cc1cc(C=O)c(C)n1-c1cccc(F)c1
Response line: 78 to 80 °C

// provenance: a melting point compilation (Tetko et al.)
